# Measured On: human α1B‐adrenoceptor (Homo sapiens, UniProt P35368)
# Construct: expressed in transfected cells; host or cells: CHO-K1
# Sequence (P35368 whole entry): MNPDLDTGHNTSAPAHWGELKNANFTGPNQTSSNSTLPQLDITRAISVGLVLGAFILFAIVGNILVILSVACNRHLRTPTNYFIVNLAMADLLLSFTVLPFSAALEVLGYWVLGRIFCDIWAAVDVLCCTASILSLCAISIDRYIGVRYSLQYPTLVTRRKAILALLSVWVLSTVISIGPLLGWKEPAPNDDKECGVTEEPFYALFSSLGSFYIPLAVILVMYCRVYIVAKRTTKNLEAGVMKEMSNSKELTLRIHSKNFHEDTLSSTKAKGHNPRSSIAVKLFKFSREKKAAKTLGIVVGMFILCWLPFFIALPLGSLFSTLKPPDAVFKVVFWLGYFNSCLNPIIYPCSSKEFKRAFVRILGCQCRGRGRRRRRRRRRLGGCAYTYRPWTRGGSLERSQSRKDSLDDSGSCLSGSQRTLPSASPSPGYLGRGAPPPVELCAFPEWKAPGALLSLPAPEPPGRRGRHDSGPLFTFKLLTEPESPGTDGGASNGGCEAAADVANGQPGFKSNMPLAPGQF
# Assay Method Text: ^3H‐prazosin whole‐cell radioligand binding, CHO‐α1B cells
# Study Conditions: CHO‐α1B cells, whole‐cell binding (from Table 1); given as log KD (negative numbers)
Measured Attribute: Log KD, ^3H‐prazosin binding

C[C@](N)(Cc1ccc(O)c(O)c1)C(=O)O
No binding
CCN1CCc2nc(N)oc2CC1
No binding
COc1ccc(OC)c(C(O)CNC(=O)CN)c1 (stereo not drawn)
No binding

----------
# Measured On: human α1B‐adrenoceptor (Homo sapiens, UniProt P35368)
# Construct: expressed in transfected cells; host or cells: CHO-K1
# Assay Method Text: ERK1/2‐phosphorylation (Surefire Alphascreen), CHO‐α1B cells
# Assay type: cell-based
Measured Attribute: ERK1/2‐phosphorylation % PDBu

// worked examples, ERK1/2‐phosphorylation % PDBu included
CCC1(c2cnc[nH]2)Cc2ccccc2C1 [Atipamezole]
No response
Cc1cccc(C(C)c2cnc[nH]2)c1C (stereo not drawn) [Medetomidine]
55.2 ± 5.3%
O=C1CCC(=O)N1C[C@H]1CC[C@H]2CN(c3ncccn3)CCN2C1 [Sunepitrion]
7.8 ± 2.8%
Cc1cc(C(C)(C)C)cc(C)c1CC1=NCCN1 [Xylometazoline]
66.2 ± 6.0%
c1ccc2c(c1)CCCC2C1=NCCN1 (stereo not drawn) [Tetrohydrozoline]
No response

What value of ERK1/2‐phosphorylation % PDBu has been reported for the following compound? Brc1c(NC2=NCCN2)ccc2nccnc12 [Brimonidine] 41.2 ± 6.2%

What value of ERK1/2‐phosphorylation % PDBu has been reported for the following compound? Clc1cccc(Cl)c1N=C1NCCN1 [Clonidine] 60.6 ± 7.6%

What value of ERK1/2‐phosphorylation % PDBu has been reported for the following compound? Nc1cc(Cl)c(N=C2NCCN2)c(Cl)c1 [para‐amino‐clonidine] 32.8 ± 6.9%
